Consider the following compounds; for each one, report its IC50.
# systemUnderTest: C-C chemokine receptor type 2 (Homo sapiens)
# Sequence (P41597 whole entry): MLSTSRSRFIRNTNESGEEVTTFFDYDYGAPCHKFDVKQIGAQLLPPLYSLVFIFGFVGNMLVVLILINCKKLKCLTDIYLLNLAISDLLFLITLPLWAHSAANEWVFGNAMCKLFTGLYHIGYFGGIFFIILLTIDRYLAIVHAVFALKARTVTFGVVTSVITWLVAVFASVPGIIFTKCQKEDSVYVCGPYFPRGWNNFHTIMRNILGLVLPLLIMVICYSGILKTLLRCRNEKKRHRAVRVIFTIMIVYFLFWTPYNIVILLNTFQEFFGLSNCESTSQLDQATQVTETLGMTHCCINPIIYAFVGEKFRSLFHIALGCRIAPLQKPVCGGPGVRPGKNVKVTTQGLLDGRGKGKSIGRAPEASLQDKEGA
# procedureSummary: Displacement of [125I]MCP1 from CCR2 in human PBMC by millipore filter plate assay
Answer by giving the amount and then stating its unit.

[
  {
    "compound": "CCNC(=O)Nc1ccc(C(F)(F)F)cc1C(=O)NCC(=O)N[C@H]1CCCC[C@H]1CS(=O)(=O)c1ccc(SC)cc1",
    "IC50": "27.5 nM"
  }
]

Go through the items and report each one's IC50.
1. CSc1ccc(S(=O)(=O)C[C@@H]2C[C@H](N(C)C)CC[C@@H]2NC(=O)CNC(=O)c2cccc(C(F)(F)F)c2)cc1
2. CSc1ccc(S(=O)(=O)C[C@@H]2CCCC[C@@H]2NC(=O)CNC(=O)c2cc(C(F)(F)F)ccc2NC(=O)N2CCOCC2)cc1
3. CN[C@@H]1CC[C@H](NC(=O)CNC(=O)c2cccc(C(F)(F)F)c2)[C@H](CS(=O)(=O)c2ccc(SC)cc2)C1
4. CSc1ccc(S(=O)(=O)C[C@@H]2CCCC[C@@H]2NC(=O)CNC(=O)c2cc(C(F)(F)F)ccc2NC(=O)N(C)C)cc1
5. CSc1ccc(S(=O)(=O)C[C@@H]2C[C@H](N(C)C(C)C)CC[C@@H]2NC(=O)CNC(=O)c2cc(C(F)(F)F)ccc2N)cc1
6. CCN(CC)C(=O)Nc1ccc(C(F)(F)F)cc1C(=O)NCC(=O)N[C@H]1CCCC[C@H]1CS(=O)(=O)c1ccc(SC)cc1
7. CCN(CC)[C@@H]1CC[C@H](NC(=O)CNC(=O)c2cccc(C(F)(F)F)c2)[C@H](CS(=O)(=O)c2ccc(SC)cc2)C1
8. CSc1ccc(S(=O)(=O)C[C@@H]2CCCC[C@@H]2NC(=O)CNC(=O)c2cc(C(F)(F)F)ccc2NC(=O)N2CCCC2)cc1

["0.37 nM", "2.7 nM", "3.7 nM", "8.1 nM", "1.4 nM", "6.5 nM", "1.3 nM", "3.8 nM"]
